target: Bcl-xL, Q07817; assay: peptide SPOT array, c-Myc-tagged receptor at 1 uM or 100 nM, anti-c-Myc-Cy3
Sequence (Q07817 1-209): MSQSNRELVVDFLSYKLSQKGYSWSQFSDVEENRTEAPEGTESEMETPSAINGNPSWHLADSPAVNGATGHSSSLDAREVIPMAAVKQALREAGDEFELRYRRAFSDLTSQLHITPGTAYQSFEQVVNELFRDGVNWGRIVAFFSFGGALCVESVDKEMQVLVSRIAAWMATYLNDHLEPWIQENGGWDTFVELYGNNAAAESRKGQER
METRIC: SPOT signal as a fraction of Bim BH3's signal on the same receptor and array

Completed entries (count: 2):
RMIVDCVSSHLKKTLDGAKTFIIFLC [BBS10]
0.61
DLSAVTLSREDQAMAEQLAENYHNTW [RYR1]
0.02

(a) SRQPRDFGDSDARGGKGFLRGVVGGV [VPS13C]
(b) FTGNNTAVQELKRVLEQFTATFRRKA [TUBB4Q]
Qu. Which shows the larger SPOT signal as a fraction of Bim BH3's signal on the same receptor and array value: a or b ? Pick one and reply with its label.
Ans. b

(I) GAQHSTMTSTDRRLGEDIFKGVVTKG [CCDC138]
(II) LSIIYTLVEIFQNIGDTNLADFTAGL [SLC26A4]
Qu. For the pair I and II , which member has the lower SPOT signal as a fraction of Bim BH3's signal on the same receptor and array number? Pick one and reply with its label.
Ans. I

Source of measurements: paper PMC4072508
